assayDetails: chemical genetic growth profiling, strain panel (AID 1159580);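 further: tested at 20 µM; growth read once vehicle control cultures reached saturation at 30 °C; 1 = growth at the plate median or of vehicle wells; lower values mean less growth of the strain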
conditionNotes: S. cerevisiae deletion strains, growth OD, locus YIL066C, strain RNR3, stronger effect = lower value
About 2,000 (36%) of roughly 5,500 compounds were called active. Not shown: some 18% with an inconclusive outcome. Some of the results follow.
measuredEndpoint: normalized growth
// return a plain number; no unit text

-- ask Quick one: normalized growth for `CC[C@@]1(O)C(=O)OCc2c1cc1n(c2=O)Cc2cc3ccccc3nc2-1` ?
-- reply 0.921

-- ask Input C[C@H]1[C@H](C)CC[C@]2(C(=O)O)CC[C@]3(C)C(=CCC4[C@@]5(C)C[C@@H](O)[C@H](O)[C@@](C)(CO)C5[C@H](O)C[C@]43C)[C@H]12 (some centres not stated)
-- reply 0.985

-- ask Input NC[C@@H]1O[C@H](O[C@@H]2[C@@H](CO)OC(O[C@@H]3[C@@H](O)[C@H](N)C[C@H](N)[C@H]3O[C@H]3O[C@H](CO)[C@@H](O)[C@H](O)[C@H]3N)[C@@H]2O)[C@H](N)[C@@H](O)[C@@H]1O (some centres not stated)
-- reply 0.969

-- ask Input CCC(=O)O[C@]1(C(=O)CCl)[C@@H](C)CC2C3CCC4=CC(=O)C=C[C@]4(C)[C@@]3(F)[C@@H](O)C[C@@]21C (some centres not stated)
-- reply 0.985

-- ask Input `CC[C@@]1(O)C(=O)OCc2c1cc1n(c2=O)Cc2cc3cc(O)ccc3nc2-1`
-- reply 1.01

-- ask Input CCC(=O)OCC(=O)[C@@]1(OC(=O)CC)[C@@H](C)CC2C3CCC4=CC(=O)C=C[C@]4(C)C3(F)[C@@H](O)C[C@@]21C (some centres not stated)
-- reply 0.806

-- ask Input CC(=O)OCC(=O)[C@@]1(O)CCC2C3C[C@H](C)C4=CC(=O)C=CC4(C)C3[C@@H](O)CC21C (some centres not stated)
-- reply 1.02

-- ask Input CC(=O)[C@@]1(O)CCC2C3C=C(Cl)C4=CC(=O)[C@@H]5CC5[C@]4(C)C3CC[C@@]21C (some centres not stated)
-- reply 1.01

-- ask Input `N#Cc1c(Cl)cccc1Cl`
-- reply 1.04

-- ask Input `COc1cccc2c1CCC1=CC(=O)CC[C@@]12C`
-- reply 0.955

-- ask Input COP(N)(=O)SC (configuration not stated)
-- reply 1.03

-- ask Input `O=C(CCCN1CCC(O)(c2ccc(Cl)cc2)CC1)c1ccc(F)cc1`
-- reply 0.846

-- ask Input `CCOC(=O)C1=C(O)C(=O)N(Cc2ccccc2)C1`
-- reply 1

-- ask Input `CC(=O)Oc1ccccc1C(=O)Oc1ccccc1C(=O)O`
-- reply 0.982

-- ask Input `COc1ccc(-c2cc(=O)c3c(O)cc(O)cc3o2)cc1`
-- reply 1.01

-- ask Input CCCCC(=O)O[C@]1(C(=O)CO)[C@@H](C)CC2C3CCC4=CC(=O)C=C[C@]4(C)[C@@]3(F)C(O)C[C@@]21C (some centres not stated)
-- reply 1.01

-- ask Input COC1C(O)C(O[C@H]2CC[C@]3(C=O)C4C(CC[C@]3(O)C2)[C@@]2(O)CC[C@H](C3=CC(=O)OC3)[C@@]2(C)C[C@H]4OC(C)=O)OC(C)C1OC(C)=O (some centres not stated)
-- reply 1.04

-- ask Input Cc1ccccc1N1C(=O)c2cc(S(N)(=O)=O)c(Cl)cc2NC1C (configuration not stated)
-- reply 1.01

-- ask Input CC(=O)O[C@@H]1CC2C(C)(C)CCC[C@]2(C)C2CC[C@]3(C)C(=CC(=O)O[C@H]3c3ccoc3)[C@@]21C (some centres not stated)
-- reply 1.02

-- ask Input CC(=O)N1CCCC1C(=O)O (configuration not stated)
-- reply 1.02

-- ask Input `O=c1c(O)cc([C@H]2Oc3cc(O)cc(O)c3C[C@H]2O)cc2c([C@H]3Oc4cc(O)cc(O)c4C[C@H]3O)cc(O)c(O)c12`
-- reply 1.02

-- ask Input COC1=CC(C)[C@@H]2C[C@H]3OC(=O)C[C@H]4C(C)=C(OC)C(=O)C([C@@]34C)[C@@]2(C)C1=O (some centres not stated)
-- reply 1.02

-- ask Input CCC(=O)OCC(=O)C1(OC(=O)CC)C(C)CC2C3CCC4=CC(=O)C=CC4(C)C3(Cl)C(O)CC21C (configuration not stated)
-- reply 1.03

-- ask Input C[C@H]1O[C@@H](O[C@H]2[C@@H](O)C[C@H](O[C@H]3[C@@H](O)C[C@H](O[C@H]4CC[C@]5(C)C6CC[C@]7(C)[C@@H](C8=CC(=O)OC8)CC[C@]7(O)C6CC[C@@H]5C4)O[C@@H]3C)O[C@@H]2C)C[C@H](O)[C@@H]1O (some centres not stated)
-- reply 0.993

-- ask Input `O=C(/C=C(\O)c1ccccc1)c1ccccc1O`
-- reply 0.696

-- ask Input `NC(=O)c1ccccc1O`
-- reply 0.993

-- ask Input `O=C(O)c1cc(O)ccc1O`
-- reply 0.985

-- ask Input `COc1cc(C(=O)N2CCOCC2)cc(OC)c1OC`
-- reply 1.02

-- ask Input C[C@]12CC[C@H](O)C[C@H]1CCC1C2CC[C@]2(C)[C@@H](C3=CC(=O)OC3)[C@@H](O)C[C@]12O (some centres not stated)
-- reply 1.03

-- ask Input `C[C@]12CCC(=O)C=C1CCc1ccc(O)cc12`
-- reply 1.02

-- ask Input `C/C=C(\C)C(=O)O[C@@H]1c2c(ccc3ccc(=O)oc23)OC(C)(C)[C@@H]1OC(C)=O`
-- reply 0.992

-- ask Input `CC1(C)[C@@H]2CC[C@@]1(C)C(=O)C2`
-- reply 1.03

-- ask Input Oc1ccc2c3c1OC1[C@@H](O)CC[C@@]4(O)[C@@H](C2)N(CC2CCC2)CC[C@]314 (some centres not stated)
-- reply 1.02

-- ask Input `Nc1ccc(S(=O)(=O)Nc2ncccn2)cc1`
-- reply 0.984

-- ask Input CC(=O)N1CCN(c2ccc(OCC3CO[C@](Cn4ccnc4)(c4ccc(Cl)cc4Cl)O3)cc2)CC1 (some centres not stated)
-- reply 0.0659

-- ask Input `COc1cc(C(=O)O)cc(OC)c1OC`
-- reply 1.04

-- ask Input `CCn1nc(C(=O)O)c(=O)c2cc3c(cc21)OCO3`
-- reply 1.01

* * *

assayDetails: chemical genetic growth profiling, strain panel (AID 1159580);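 further: tested at 20 µM; growth read once vehicle control cultures reached saturation at 30 °C; 1 = growth at the plate median or of vehicle wells; lower values mean less growth of the strain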
conditionNotes: S. cerevisiae deletion strains, growth OD, locus YLR258W, strain gsy2, stronger effect = lower value
The campaign covered roughly 5,500 compounds. About 2,000 (36%) were called active. Inconclusive results (about 18%) are left out. This is one part of the list.
Hi there, I'd appreciate the recorded normalized growth for every entry that follows.
// return a plain number; no unit text

-- ask Quick one: normalized growth for CC1(C)S[C@@H]2[C@H](NC(=O)C(C(=O)O)c3ccccc3)C(=O)N2[C@H]1C(=O)O (stereo not given in full) ?
-- reply 0.967

-- ask Input `COc1ccc(-c2cc(=O)c3c(O)c(OC)c(OC)c(OC)c3o2)cc1OC`
-- reply 1

-- ask Input CC1=CC(=O)C2C(C)(C)CCC[C@]2(C)[C@@]1(O)CCc1ccoc1 (stereo not given in full)
-- reply 0.996

-- ask Input `COc1ccc(-c2cc(=O)c3c(O)cc(O)cc3o2)cc1`
-- reply 0.97

-- ask Input `COc1ccc(-c2cc(=O)c3c(OC)c(OC)c(OC)c(OC)c3o2)cc1OC`
-- reply 1.01

-- ask Input Oc1ccc2c3c1OC1[C@@H](O)CC[C@@]4(O)[C@@H](C2)N(CC2CCC2)CC[C@]314 (stereo not given in full)
-- reply 1.01

-- ask Input COC1=CC(C)[C@@H]2C[C@H]3OC(=O)C[C@H]4C(C)=C(OC)C(=O)C([C@@]34C)[C@@]2(C)C1=O (stereo not given in full)
-- reply 0.968

-- ask Input `CCc1ccc2c(O)c3c(cc2c1C(=O)OC)C(=O)c1c(O)ccc(O)c1C3=O`
-- reply 0.989

-- ask Input `COc1cc(-c2cc(=O)c3c(O)c(OC)c(OC)c(OC)c3o2)cc(OC)c1OC`
-- reply 1.01

-- ask Input `CC1(C)[C@@H]2CC[C@@]1(C)C(=O)C2`
-- reply 0.986

* * *

assayDetails: chemical genetic growth profiling, strain panel (AID 1159580);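 further: tested at 20 µM; growth read once vehicle control cultures reached saturation at 30 °C; 1 = growth at the plate median or of vehicle wells; lower values mean less growth of the strain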
conditionNotes: S. cerevisiae deletion strains, growth OD, locus YER016W, strain bim1, stronger effect = lower value
About 2,000 (36%) of roughly 5,500 compounds were called active. Inconclusive results (about 18%) are left out. The list shows a part of the results.
Hi there, I'd appreciate the recorded normalized growth for every entry that follows.
// return a plain number; no unit text

-- ask Quick one: normalized growth for C[C@H]1O[C@@H](O[C@H]2[C@@H](O)C[C@H](O[C@H]3[C@@H](O)C[C@H](O[C@H]4CC[C@]5(C)C6C[C@@H](O)[C@]7(C)[C@@H](C8=CC(=O)OC8)CC[C@]7(O)C6CC[C@@H]5C4)O[C@@H]3C)O[C@@H]2C)C[C@H](O)[C@@H]1O (some centres undefined) ?
-- reply 0.987

-- ask Input `COc1c(O)cc2c(c1O)[C@H]1O[C@H](CO)[C@@H](O)[C@H](O)[C@@H]1OC2=O`
-- reply 1.02

-- ask Input COC1C(O)C(O[C@H]2CC[C@]3(C=O)C4C(CC[C@]3(O)C2)[C@@]2(O)CC[C@H](C3=CC(=O)OC3)[C@@]2(C)C[C@H]4OC(C)=O)OC(C)C1OC(C)=O (some centres undefined)
-- reply 1.01

-- ask Input `O=C1CC2(CCCC2)CC(=O)N1CCCCN1CCN(c2ncccn2)CC1`
-- reply 0.996

-- ask Input `C/C=C(\C)C(=O)O[C@@H]1c2c(ccc3ccc(=O)oc23)OC(C)(C)[C@@H]1OC(C)=O`
-- reply 0.993

-- ask Input C[C@H]1O[C@@H](O[C@H]2[C@@H](O)C[C@H](O[C@H]3[C@@H](O)C[C@H](O[C@H]4CC[C@]5(C)C6CC[C@]7(C)[C@@H](C8=CC(=O)OC8)CC[C@]7(O)C6CC[C@@H]5C4)O[C@@H]3C)O[C@@H]2C)C[C@H](O)[C@@H]1O (some centres undefined)
-- reply 0.98

-- ask Input `CN[C@H]1CC[C@@H](c2ccc(Cl)c(Cl)c2)c2ccccc21`
-- reply 0.986

-- ask Input `C=CCSSSCC=C`
-- reply 0.992

-- ask Input COC1CC(OC2CCC3(C)C(CCC4C3CCC3(C)C(C5=CC(=O)OC5)C(OC(C)=O)CC43O)C2)OC(C)C1O (centres undefined)
-- reply 1.02

-- ask Input `NC(=O)c1ccc([N+](=O)[O-])cc1Cl`
-- reply 0.969

-- ask Input CC(C)(C)NCC(O)COc1cccc2c1C[C@H](O)[C@H](O)C2 (some centres undefined)
-- reply 1.01

-- ask Input `CC(C)C[C@@H](NC(=O)OCC1c2ccccc2-c2ccccc21)C(=O)O`
-- reply 0.993

-- ask Input Cc1ccccc1N1C(=O)c2cc(S(N)(=O)=O)c(Cl)cc2NC1C (centres undefined)
-- reply 0.998

-- ask Input `O=C(CCCN1CCC(O)(c2ccc(Cl)cc2)CC1)c1ccc(F)cc1`
-- reply 0.943

-- ask Input CC1(C)Oc2ccc3ccc(=O)oc3c2CC1O (centres undefined)
-- reply 0.996

-- ask Input `NC[C@H]1O[C@H](O[C@H]2[C@H](O)[C@@H](O[C@H]3O[C@H](CO)[C@@H](O)[C@H](N)[C@H]3O)[C@H](N)C[C@@H]2N)[C@H](N)[C@@H](O)[C@@H]1O`
-- reply 0.988

-- ask Input `COC(=O)[C@H]1[C@H]2C[C@H]3c4[nH]c5cc(OC)ccc5c4CCN3C[C@H]2C[C@@H](OC(=O)c2cc(OC)c(OC)c(OC)c2)[C@@H]1OC`
-- reply 1.01

-- ask Input C/C=C/CC(C)C(O)C1C(=O)NC(CC)C(=O)N(C)CC(=O)N(C)C(CC(C)C)C(=O)NC(C(C)C)C(=O)N(C)C(CC(C)C)C(=O)NC(C)C(=O)NC(C)C(=O)N(C)C(CC(C)C)C(=O)N(C)C(CC(C)C)C(=O)N(C)C(C(C)C)C(=O)N1C (centres undefined)
-- reply 1.02

-- ask Input `COC(=O)NC(=S)Nc1ccccc1NC(=S)NC(=O)OC`
-- reply 0.963

-- ask Input `C=CCSCC=C`
-- reply 0.991

-- ask Input `O=C(Oc1ccccc1C(=O)O)c1ccccc1O`
-- reply 1

-- ask Input `NC(=O)c1cc([N+](=O)[O-])cc([N+](=O)[O-])c1`
-- reply 0.999

-- ask Input `O=C(CCCN1CCN(c2ccccn2)CC1)c1ccc(F)cc1`
-- reply 0.981

-- ask Input `COC1=CC(=O)C=C(OC)C1=O`
-- reply 0.97

-- ask Input `C=CCSSCC=C`
-- reply 1.03

-- ask Input NC[C@@H]1O[C@H](O[C@@H]2[C@@H](CO)OC(O[C@@H]3[C@@H](O)[C@H](N)C[C@H](N)[C@H]3O[C@H]3O[C@H](CO)[C@@H](O)[C@H](O)[C@H]3N)[C@@H]2O)[C@H](N)[C@@H](O)[C@@H]1O (some centres undefined)
-- reply 0.989

-- ask Input CC1(C)C(O)CC(=O)C2(C)C1CC(O)C1(C)C2CCC2(C)C(c3ccoc3)OC(=O)C3OC321 (centres undefined)
-- reply 1

-- ask Input `CC(=O)O[C@@H]1c2c(ccc3ccc(=O)oc23)OC(C)(C)[C@@H]1OC(=O)CC(C)C`
-- reply 0.995

-- ask Input `COc1ccc(-c2cc(=O)c3c(O)cc(O)c(-c4cc(-c5cc(=O)c6c(O)cc(O)cc6o5)ccc4OC)c3o2)cc1`
-- reply 1.01

-- ask Input `CC1(C)[C@@H]2CC[C@@]1(C)C(=O)C2`
-- reply 1.01

-- ask Input NC[C@H]1O[C@H](OC2[C@@H](N)C[C@@H](N)[C@H](O[C@H]3O[C@H](CO)[C@@H](O)[C@H](N)[C@H]3O)[C@H]2O)[C@H](O)[C@@H](O)[C@@H]1O (some centres undefined)
-- reply 1.01

-- ask Input CC1(C)S[C@@H]2C(N3C(=O)[C@@H](c4ccccc4)NC3(C)C)C(=O)N2[C@H]1C(=O)O (some centres undefined)
-- reply 1.01

-- ask Input `Cc1c(C(N)=O)cc([N+](=O)[O-])cc1[N+](=O)[O-]`
-- reply 1.01

-- ask Input `NCCCC(O)(P(=O)(O)O)P(=O)(O)O`
-- reply 0.984

The reported numbers originate from PubChem BioAssay AID1159580.
